# interaction score per record follows
# measuredOn: T1, 4H485-AA
# T1 chain: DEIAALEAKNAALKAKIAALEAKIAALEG
# procedureDetails: two-hybrid library CCmax;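 also: natural log of median RNA to DNA barcode read ratio; higher means stronger binding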
# conditionLabel: mean of both orientations
outcomeMeasure: interaction score

- binder: "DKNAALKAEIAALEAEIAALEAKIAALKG [4H3590-AA]"
  recordedValue: 1.8
- binder: "DKNAALEAKIAALKAEIAALEAENAALEG [4H3395-AA]"
  recordedValue: -1.67
- binder: "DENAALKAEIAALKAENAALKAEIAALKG [4H1626-AA]"
  recordedValue: -1.46
